Origin of measurements: paper PMC3759959

# Test system: HSV-1 virus
# measurement.description: Anti HSV-1 CPE inhibition assay in Vero cells
# run.conditions: TI = TC50/IC50
Measured TI (TC50/IC50), HSV-1 virus by item

| compound | tested.target | op | TI (TC50/IC50), HSV-1 virus |
| --- | --- | --- | --- |
| CC(=O)O[C@@]12C[C@H](C)CCC1=C(C)C(=O)O2 | HSV-1 virus | = | 4.0 |
| Nc1nc2c(ncn2COCCO)c(=O)[nH]1 [Aciclovir, reference compound] | HSV-1 virus | > | 136.4 |
| CCO[C@@]12C[C@H](C)CCC1=C(C)C(=O)O2 | HSV-1 virus | = | 2.5 |
| CC1=C2CC[C@@H](C)C[C@@]2(OC(=O)c2ccccc2Br)OC1=O | HSV-1 virus | = | 4.7 |
| CCC(=O)O[C@@]12C[C@H](C)CCC1=C(C)C(=O)O2 | HSV-1 virus | = | 2.5 |
